- tgt: Recombinant human PDK1 enzyme (aa 52-556) (Homo sapiens (Human), UniProt O15530)
- Sequence (O15530 52-556): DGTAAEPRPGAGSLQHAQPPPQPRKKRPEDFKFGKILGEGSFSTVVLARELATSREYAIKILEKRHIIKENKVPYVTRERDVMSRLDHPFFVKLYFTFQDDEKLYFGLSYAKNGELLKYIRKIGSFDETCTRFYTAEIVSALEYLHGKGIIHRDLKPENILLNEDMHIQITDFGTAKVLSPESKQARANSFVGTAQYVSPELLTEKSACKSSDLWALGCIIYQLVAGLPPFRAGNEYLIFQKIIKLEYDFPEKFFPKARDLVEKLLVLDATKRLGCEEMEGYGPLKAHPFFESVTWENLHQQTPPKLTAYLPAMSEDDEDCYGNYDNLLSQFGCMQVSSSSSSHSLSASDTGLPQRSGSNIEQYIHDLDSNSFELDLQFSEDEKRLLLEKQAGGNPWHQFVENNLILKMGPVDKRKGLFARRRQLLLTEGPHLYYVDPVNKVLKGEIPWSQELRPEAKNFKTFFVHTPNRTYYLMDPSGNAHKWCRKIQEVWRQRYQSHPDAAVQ
- procedure_summary: PDK1 kinase assay
- experimental_parameters: in vitro kinase assay, His6-PDK1 (aa 52-556), PDKtide, P33-ATP
pIC50: −log10 of the molar value.
# cutoff 8 applies to pIC50; >= gives satisfied, < gives not satisfied

1) CN(c1ncnc2ccc(C#CCNC(=O)c3cncn(Cc4ccc(F)c(F)c4)c3=O)cc12)C1CCCCC1; not satisfied
2) O=C(NCC#Cc1ccc2nccc(NC3CC3)c2c1)c1cncn(Cc2ccc(F)c(F)c2)c1=O; not satisfied
3) COCCN1CCC(Nc2cnc3ccc(C#CCNC(=O)c4cccn([C@@H](CO)c5ccc(F)c(F)c5)c4=O)cc3c2)CC1; satisfied
4) CN(C)CC(O)COc1ccnc2ccc(C#CCNC(=O)c3cccn(Cc4ccc(F)c(F)c4)c3=O)cc12 (stereo not shown); not satisfied
5) COCCN1CCC(Nc2cnc3ccc(C#CCNC(=O)c4cncn(Cc5ccc(F)c(F)c5)c4=O)cc3n2)CC1; satisfied
6) CN1CCC(Nc2cnc3ccc(C#CCNC(=O)c4cccn(Cc5ccc(F)c(F)c5)c4=O)cc3n2)CC1; satisfied
7) CN1CCC(Oc2ccnc3ccc(C#CCNC(=O)c4cccn(Cc5ccc(F)c(F)c5)c4=O)cc23)CC1; not satisfied
8) CN(C)c1cnc2ccc(C#CCNC(=O)c3cncn(Cc4ccc(F)c(F)c4)c3=O)cc2n1; not satisfied
9) O=C(NCC#Cc1ccc2ncc(NC3CCN(C4COC4)CC3)nc2c1)c1cncn(Cc2ccc(F)c(F)c2)c1=O; satisfied
10) CCN1CCC(Nc2cnc3ccc(C#CCNC(=O)c4cncn(Cc5ccc(F)c(F)c5)c4=O)cc3c2)CC1; satisfied
11) CN(C)c1ccnc2ccc(C#CCNC(=O)c3cncn(Cc4ccc(F)c(F)c4)c3=O)cc12; not satisfied
12) CN1CCN(c2cnc3ccc(C#CCNC(=O)c4cncn(Cc5ccc(F)c(F)c5)c4=O)cc3n2)CC1; not satisfied
13) CC1CN(C)CCC1Nc1ncnc2ccc(C#CCNC(=O)c3cncn(Cc4ccc(F)c(F)c4)c3=O)cc12 (stereo not shown); not satisfied
